Tested on: HCC-2998 colon
assay.notes: NCI tumour cell line growth inhibition, 48 h
*1 amine or outer side, *2 acyl side, *3 side chain or, on linkers, in order; H or OH if unused. Where a SMILES comes first, the peptide text is derived from it. [ ]: non-standard residue; d: D form. ξ: configuration not given here. Ile(3ξ) = CCC(C)[C@H](N)C(=O)O; X33 = C=CCC(O[*:1])C(=O)[*:2]; NMeV = CN[C@H](C(=O)O)C(C)C; NMeA = CN[C@@H](C)C(=O)O; βAla = NCCC(=O)O

>  <compound>
COc1ccc(S(=O)Cc2cc(OC)c(OC)c(OC)c2)cc1 (stereo not given)

>  <TGI>
> 100 µM

$$$$
>  <compound>
Brc1ccc(SCN(CSc2ccc(Br)cc2)Cc2ccccc2)cc1

>  <TGI>
25.5 µM

$$$$
>  <compound>
COc1ccc(C23OCC(Cc4cc(OC)c(OC)cc42)C3COC(C)=O)cc1OC (stereo not given)

>  <TGI>
> 100 µM

$$$$
>  <compound>
COc1ccc(-c2cn3c(nc4ccccc43)c(/C=C/c3cccs3)n2)cc1

>  <TGI>
> 100 µM

$$$$
>  <compound>
C[C@]12CC[C@H](O)CC1=CC[C@@H]1C2CC[C@]2(C)c3n[nH]nc3CC12 (stereo not given in full)

>  <TGI>
> 100 µM

$$$$
>  <compound>
CC1CN=C(N(Cc2ccc(F)cc2)C(=O)Nc2ccc(Cl)cc2)S1 (stereo not given)

>  <TGI>
76.6 µM

$$$$
>  <compound>
COc1cc(C(=O)c2c(-c3ccccc3)oc3c(OC)cccc23)cc(OC)c1O

>  <TGI>
> 100 µM

$$$$
>  <compound>
CC1(C)CCC2(CC1)N[C@@H](C(=O)N[C@@H]1CC[C@@H](C(N)=O)OC1)[C@H](c1ccnc(Cl)c1F)[C@]21C(=O)Nc2cc(Cl)ccc21

>  <TGI>
3.21 µM

$$$$
>  <compound>
CCCSc1ccc2nc(NC(=O)OC)[nH]c2c1

>  <TGI>
> 33.8 µM

$$$$
>  <compound>
CCc1c(-c2ccc(OC)cc2)c(=O)oc2cc(O)ccc12

>  <TGI>
> 100 µM

$$$$
>  <compound>
COc1cc(/C=C/C(=O)Nc2ccc3c(c2)/C(=C\c2cccn2C)C(=O)N3)cc(OC)c1OC

>  <TGI>
20.9 µM

$$$$
>  <compound>
C=CCC1OC(=O)CCNC(=O)[C@H](C)N(C)C(=O)[C@H](C(C)C)N(C)C(=O)[C@H](C(C)CC)NC(=O)[C@@H]2CCCN2C1=O (stereo not given in full) (cyclo([Ile(3ξ)][NMeV][NMeA][βAla][X33]P))

>  <TGI>
27.7 µM

$$$$
>  <compound>
CCC(O)CC1OC2(CCC1C)CC1OC(=O)/C=C\C(C)(O)C(O)C(C)C(O)C(OC3CC(OC)C(O)C(C)O3)C(O)C(C)(O)CCC/C=C/C3CC(C)COC3(O)CC(O2)C1C (stereo not given)

>  <TGI>
62.3 µM

$$$$
>  <compound>
Nc1n[n+](=O)c2ccccc2n1O

>  <TGI>
> 100 µM

$$$$
>  <compound>
Fc1c(F)c(F)c2c(c1F)CSc1nc3ccccc3n1-2

>  <TGI>
> 100 µM

$$$$
>  <compound>
C[n+]1cn(C2=C([O-])c3ccccc3C(=O)/C2=N\S(=O)(=O)c2ccccc2)c2ccccc21

>  <TGI>
46.7 µM

$$$$
>  <compound>
O=[N+]([O-])c1ccc2[nH]c3c(-c4ccccc4)nccc3c2c1

>  <TGI>
71 µM

$$$$
>  <compound>
Cn1c(C(O)C2(c3cccnc3)SCCCS2)cc2ccccc21 (stereo not given)

>  <TGI>
> 100 µM

$$$$
>  <compound>
Cc1cccc(C(C)(C)C)c1NC(=O)CCl

>  <TGI>
> 100 µM

$$$$
>  <compound>
CN(C)c1[se]nc2c1c(=O)n(C)c(=O)n2C

>  <TGI>
> 100 µM

$$$$
>  <compound>
CC1(F)C=CC(=O)C=C1

>  <TGI>
> 100 µM

$$$$
>  <compound>
NCCCCCCn1c(-c2ccc(Br)cc2)csc1=Nc1ccccc1

>  <TGI>
12.8 µM

$$$$
>  <compound>
C=CCN(Cc1ccncc1)C(=O)C(O)(c1ccccc1)c1ccccc1

>  <TGI>
> 100 µM

$$$$
>  <compound>
O=C(CN=C(CN(c1ccccc1)c1ccccc1)Oc1c(Cl)cc(Cl)cc1Cl)N1c2ccccc2Sc2ccccc21

>  <TGI>
> 100 µM

$$$$
>  <compound>
COc1cc(C)c2c(c1C=O)Oc1c(c(C)c(O)c3c1C(O)OC3=O)OC2=O (stereo not given)

>  <TGI>
44.5 µM

$$$$
>  <compound>
COC(=O)C1C(O)C(C)C(=O)C(C)/C=C\C=C(C)C(=O)Nc2c(C)c(OC(C)=O)c3c(c2O)C(=O)C(C)=C2OCOC(=C23)C(C)=CC(C)(O)C(O)C(C)C1O (stereo not given)

>  <TGI>
53.2 µM

$$$$
>  <compound>
COC(=O)C1=C(OC(=O)c2ccccc2)C(C(=O)OC)[C@]2(O)[C@@H](C(=O)OC)C1CC(c1ccccc1OC)[C@@H]2C(=O)OC (stereo not given in full)

>  <TGI>
34.1 µM

$$$$
>  <compound>
N#Cc1c2c(c(Cl)n3c1nc1ccccc13)CCCC2

>  <TGI>
30.8 µM

$$$$
>  <compound>
O=C1c2ccccc2C(=O)N1C/C=N/NS(=O)(=O)c1ccc(F)cc1

>  <TGI>
> 100 µM

$$$$
>  <compound>
COc1ccc2c(c1)[C@@H]1c3cc(OC)c(OC)cc3CCN1CCC2

>  <TGI>
> 100 µM

$$$$
>  <compound>
COc1ccc(C2/C(=C(\O)c3ccccc3)C(=O)C(O)(CC(=O)c3ccccc3)N2c2ccc(OC)cc2)cc1 (stereo not given)

>  <TGI>
> 47.7 µM

$$$$
>  <compound>
COc1ccc2c(c1)C1C(CO2)C(c2ccccc2)=NN1c1ccccc1 (stereo not given)

>  <TGI>
> 100 µM

$$$$
>  <compound>
CCNCCCCNCCCCNCCCCNCCCCNCC

>  <TGI>
> 100 µM

$$$$
>  <compound>
CC1NS(=O)(=O)N(C)C1=O (stereo not given)

>  <TGI>
> 100 µM

$$$$
>  <compound>
NCCc1c[nH]c2ccc(OC(=O)C(=O)O)cc12

>  <TGI>
> 100 µM

$$$$
>  <compound>
CC(=O)OC1CC2CC(=O)CC1N2C (stereo not given)

>  <TGI>
> 100 µM

$$$$
>  <compound>
COC(=O)CCC1=NOC(CC2CC(CCC(=O)OC)=NO2)C1 (stereo not given)

>  <TGI>
> 100 µM

$$$$
>  <compound>
N#Cc1c(-c2ccc([N+](=O)[O-])cc2)cc(-c2ccc(Nc3ccnc4cc(C(F)(F)F)ccc34)cc2)[nH]c1=O

>  <TGI>
> 100 µM

$$$$
>  <compound>
COC(=O)Cc1cccc2c1CCC2=O

>  <TGI>
> 100 µM

$$$$
>  <compound>
COc1ccc2c(c1)C(N)=C(c1ccccc1OC)C2=O

>  <TGI>
> 100 µM

$$$$

// provenance: PubChem BioAssay (NCI)
